# Target system: T1, SIPA1L2, Q9P2F8
# T1 sequence (Q9P2F8 945-1036, limits assumed, looked up): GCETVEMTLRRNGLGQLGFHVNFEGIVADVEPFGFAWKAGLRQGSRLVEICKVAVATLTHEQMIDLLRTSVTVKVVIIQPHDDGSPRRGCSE
# Experiment summary: holdup assay
# Set-up: key: below the threshold = too weak to quantify, mostly under pKd 3.1 to 4
# Condition parameters: plain residues with an end cap or a label only (N-terminal biotin on a linker: ahx)
Observation type: pKd

Example entries and their recorded answers appear below.
{"Binder": "SAPATLSSRA [PDLIM2, Q96JY6]", "Observation type": "pKd", "Result": "below the threshold"}
{"Binder": "KEYDDELTFF [USH1C, Q9Y6N9]", "Observation type": "pKd", "Result": "below the threshold"}
{"Binder": "ADENEQVSAV [RAPGEF6, Q8TEU7]", "Observation type": "pKd", "Result": "below the threshold"}
{"Binder": "AKPQPVDSWV [ARVCF, O00192]", "Observation type": "pKd", "Result": "below the threshold"}
{"Binder": "PKMKLNETSF [SHKBP1, Q8TBC3]", "Observation type": "pKd", "Result": "below the threshold"}
{"Binder": "SKKNELFSNL [NHERF1, O14745]", "Observation type": "pKd", "Result": "below the threshold"}

Each binder below has a reported value. Please supply its pKd.
1. HSATSVHTSV [MTMR1, Q13613]
2. VNENQKEYFF [CNTNAP4, Q9C0A0]

Response:
1. below the threshold
2. below the threshold

Each binder below has a reported value. Please supply its pKd.
1. YNSFLSVTTV [PDZRN3, Q9UPQ7]
2. KDECVIATEV [DLL1, O00548]

Response:
["below the threshold", "below the threshold"]
